System: T1, mIL1RAcP-Fc (murine, UniProt Q61730 21-359)
T1 construct: also called P013_04; P013-04
T1 sequence (looked up): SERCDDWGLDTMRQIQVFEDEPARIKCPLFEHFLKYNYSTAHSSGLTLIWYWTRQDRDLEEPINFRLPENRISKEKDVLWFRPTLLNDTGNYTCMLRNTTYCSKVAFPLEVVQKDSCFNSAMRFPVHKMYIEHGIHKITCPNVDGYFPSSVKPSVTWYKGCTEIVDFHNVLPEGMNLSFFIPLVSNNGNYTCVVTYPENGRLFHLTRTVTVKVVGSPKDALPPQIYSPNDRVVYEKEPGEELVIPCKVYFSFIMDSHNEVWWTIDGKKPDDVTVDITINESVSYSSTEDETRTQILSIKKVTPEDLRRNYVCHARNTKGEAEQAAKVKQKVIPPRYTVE
Assay procedure: ELISA, recombinant purified mAb
Measured endpoint: EC50 (µg/mL)
Expressed in µg/mL, but write only the number.

Illustrative cases are given below, each with its answer.
>>> recorded_number("P013.S.02.B.H04 (antibody, V domains shown, rabbit monoclonal antibody; also called P013.A.00029.F11) VH: QSVEESGGRLVKPDETLTLTCTVSGIDLSSYAMGWVRQAPGKGLEYIGIISSSGRTYYANWAKGRFTISKASSTTVDLKITSPTTEDTATYFCARLITVDYYIYDYFNLWGQGTLVTVSS VL: AYDMTQTPASVEAAVGGTVTIKCQASQSISSYLSWYQQKPGQPPKLLIYGASTLASGVPSRFKGSGSGTEYTLTISGVESDDAATYYCQQGYSYNNVDNTFGGGTEVVVK")
0.644
>>> recorded_number("P013.S.02.B.D05 (antibody, V domains shown, rabbit monoclonal antibody; also called P013.A.00086.B09) VH: QQQLVESGGGLVKPGASLTLTCKASGFSFSSGYYMCWVRQAPGKGLEWIACIGMGSGKTYYASWAKGRFTISKTSSTTVTLQMTSLTAADTATYFCARKDGSGNEHYNLWGPGTLVTVSS VL: DIVMTQTPASVEAAVGGTVTIRCQASQSISSYLAWYQRKPGQPPKVLIYKASTLASGVSSRFKGSGSGTEYTLTISDLESADAATYYCQQGYASSGVDNVFGGGTEVVVK")
0.206

Recorded EC50 for P013.S.01.B.F06 (antibody, V domains shown, rabbit monoclonal antibody; also called P013.A.00045.E09) VH: QSVEESGGRLVTPGTPLTLTCTVSGIDLSSDAVGWVRQAPGKGLEYIGIIVSSGETFYASWARGRCTISKTSSTTVDLRITRLTTEDTATYFCARGGPGYSFDTEYAFDPWGPGTLVTVSS VL: AFEMTQTPASVEVAVGGTVTINCQASQSIGSWLSWYQQKVGQRPKLLISRASTLASGVPSRFKGSGSGTEYTLTISGVQSDDAATFYCQQGATTYDVDNVFGGGTEVVVR , please?
0.028

Recorded EC50 for P013.S.02.B.E04 (antibody, V domains shown, rabbit monoclonal antibody; also called P013.A.00088.A02) VH: QSLEESGGDLVKPGASLTLTCTASGFSLSSGGMSWVRQAPGKGLGWIGYINTGSGSTYYASWVNGRFTISKTSSTTVSLQMTSLTAADTATYFCAGGLPSDLWGPGTLVTVSS VL: DIVMTQTPSSVEAAVGGTVTIKCQASQSINSRLAWYQQKPGQPPKLLIYSASTLASGVSSRFKGSGSGTEFTLTISDLESADGATYYCLSHYLTSSSSYGDAFGGGTEVVVK , please?
0.385

Values compiled from patent US20190106487A1.
